Biological target: Plasmepsin 4 (Plasmodium falciparum)
Sequence (Q17SB2 whole entry): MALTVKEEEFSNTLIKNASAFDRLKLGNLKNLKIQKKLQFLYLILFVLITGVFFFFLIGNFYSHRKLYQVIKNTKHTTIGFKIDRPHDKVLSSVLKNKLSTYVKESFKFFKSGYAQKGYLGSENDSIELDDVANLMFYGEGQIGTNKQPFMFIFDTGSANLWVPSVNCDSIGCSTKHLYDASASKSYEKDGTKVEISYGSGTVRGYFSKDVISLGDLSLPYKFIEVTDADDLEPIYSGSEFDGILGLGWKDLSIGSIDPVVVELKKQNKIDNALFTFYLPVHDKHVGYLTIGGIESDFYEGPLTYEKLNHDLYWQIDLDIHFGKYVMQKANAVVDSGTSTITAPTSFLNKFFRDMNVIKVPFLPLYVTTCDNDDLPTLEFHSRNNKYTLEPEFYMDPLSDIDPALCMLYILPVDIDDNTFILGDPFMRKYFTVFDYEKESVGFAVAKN
Experiment: Inhibition of Plasmodium falciparum plasmepsin 4 by FRET assay
endpoint_name: pIC50
Scale for pIC50: -log10 of concentration given in mol/L; no unit attached.

See these solved cases before continuing.
>>> test_result("Clc1ccc2sc(SCCCc3cc4c(cc3OCCc3cccc5ccccc35)C3CCC4N3)nc2c1 (centres undefined)")
5.00
>>> test_result("c1ccc2c(CCOc3cc4c(cc3CCCSc3nc5ccccc5s3)C3CCC4N3)cccc2c1 (centres undefined)")
4.48
>>> test_result("c1ccc2c(CCOc3cc4c(cc3OCCSc3nc5ccccc5s3)C3CCC4N3)cccc2c1 (centres undefined)")
4.82

Now look at this entry.
Note to self: pIC50 recorded for COc1cc2c(cc1OCCc1cccc3ccccc13)C1CCC2N1 (centres undefined) was 4.09
